For reference, IC50 measured on Cbl-b (Homo sapiens):

The following compounds have reported results that may help.
Cn1cnnc1-c1cc(F)ccc1-c1cccc(-n2cc3c(C(F)(F)F)cc(CNCC4(O)CCC4)cn3c2=O)c1
< 100 nM
C[C@H]1CCCN(Cc2cc(C(F)(F)F)c3cn(-c4cc(-c5ccc(F)cc5-c5nncn5C)cc(C5CC5)n4)c(=O)n3c2)C1
> 500 nM

Now take the following compound into account.
-- ask What reported IC50 corresponds to C[C@H]1CCCN(Cc2cc(C(F)(F)F)c3cn(-c4cc(-c5ccc(F)cc5-c5nncn5C)cc(Cl)n4)c(=O)n3c2)C1 on Cbl-b (Homo sapiens)?
-- reply > 500 nM
